Tested on: OCSC2
Assay: Ovarian cancer stem cell proliferation/cytotoxicity (Incucyte, CellTox), OCSC2
Type: cell-based
Conditions: Homo sapiens; OCSC2; read-out: IC50 Range

{"Molecule": "Cc1c(O)ccc2c1OCC(c1cc(F)c(F)c(F)c1)C2c1ccc(O)cc1 (centres unmarked)", "IC50": "1 to 10 µg/mL"}
{"Molecule": "COc1cc(C2COc3c(ccc(O)c3C)C2c2ccc(O)c(F)c2)cc(OC)c1OC (centres unmarked)", "IC50": "1 to 10 µg/mL"}
{"Molecule": "COc1cc(C2COc3cc(O)ccc3C2c2ccc(O)c(F)c2)cc(OC)c1O (racemic)", "IC50": "0.1 to 1 µg/mL"}
{"Molecule": "COc1cc(C2COc3c(ccc(O)c3C)C2c2ccc(O)c(F)c2F)cc(OC)c1OC (centres unmarked)", "IC50": "> 10 µg/mL"}
{"Molecule": "COc1cc(C2COc3c(ccc(O)c3C)C2c2ccc(O)cc2)cc(OC)c1OC (centres unmarked)", "IC50": "1 to 10 µg/mL"}

----------
Test system: GBM14-CHA
Experiment: Cell viability (CellTiter-Glo ATP) in GBM patient-derived explant GBM14-CHA
Format: cell-based, human
Settings: 72 hrs exposure, listed as 6 Ent 2
pIC50: −log10 of the molar value.
Property name: pIC50

{"Compound": "COc1cc(C2COc3cc(O)ccc3C2c2ccc(O)c(F)c2)cc(OC)c1O (single isomer, unassigned)", "System under test": "GBM14-CHA", "Measured number": 4.55}

----------
Here, each record is paired with measured pIC50 data.
Test system: D54-sensitive
Assay: Cell viability (SRB or MTT), TMZ-sensitive D54 subclone
Assay type: cell-based
Details: 72 h, SRB, 72 hours post treatment
pIC50: −log10 of the molar value.
Property name: pIC50

{"Molecule": "COc1cc(C2COc3c(ccc(O)c3C)C2c2ccc(O)cc2)cc(OC)c1O (racemic)", "Property name": "pIC50", "Measured number": 7.05}
{"Molecule": "Cn1nnc2c(C(N)=O)ncn2c1=O [TMZ, temozolomide, reference compound]", "Property name": "pIC50", "Measured number": 3.20}

----------
Tested on: paediatric neuroblastoma cell lines
Test: Efficacy against paediatric neuroblastoma cell lines (summary)
Type: cell-based
Details: four cell lines of Table 3, read-out: IC50 values, range over paediatric neuroblastoma cell lines
Listed molecules paired with reported IC50
Property name: IC50

{"Molecule": "COc1cc(C2COc3c(ccc(O)c3C)C2c2ccc(O)c(F)c2)cc(OC)c1O (single isomer, unassigned)", "Result": "20 to 88 nM"}
{"Molecule": "CCc1cc2c(c(C)c1O)OCC(c1cc(OC)c(O)c(OC)c1)C2c1ccc(O)c(F)c1 (stereo not drawn) [Cpd 36 (+enantiomer)]", "Result": "243 to 698 nM"}

----------
Property: IC50; scope: individual molecules
Test system: OCSC2
Experiment: Ovarian cancer stem cell proliferation/cytotoxicity (Incucyte, CellTox), OCSC2
Type: cell-based
Conditions: Homo sapiens; OCSC2; read-out: IC50 Range

{"Molecule": "COc1cc(C2COc3c(ccc(O)c3C)C2c2ccc(O)c(F)c2F)cc(OC)c1O (centres unmarked)", "IC50": "0.1 to 1 mg/L"}
{"Molecule": "COc1cc(C2COc3c(ccc(O)c3C)C2c2ccc(O)c(F)c2)cc(OC)c1O (racemic)", "IC50": "0.1 to 1 mg/L"}
{"Molecule": "Oc1ccc2c(c1)OCC(c1cc(F)c(F)c(F)c1)C2c1ccc(O)c(F)c1 (centres unmarked)", "IC50": "1 to 10 mg/L"}
{"Molecule": "COc1cc(C2COc3c(ccc(O)c3C)C2c2cc(C)c(OC)c(C)c2)cc(OC)c1O (centres unmarked)", "IC50": "1 to 10 mg/L"}
{"Molecule": "Cc1c(O)ccc2c1OCC(c1cc(F)c(F)c(F)c1)C2c1ccc(O)c(F)c1 (centres unmarked)", "IC50": "1 to 10 mg/L"}
{"Molecule": "Cc1c(O)ccc2c1OCC(c1cc(C(C)(C)C)c(O)c(C(C)(C)C)c1)C2c1ccc(O)cc1 (centres unmarked)", "IC50": "1 to 10 mg/L"}
{"Molecule": "COc1cc(C2COc3c(ccc(O)c3C)C2c2cc(C)c(OC)c(C)c2)cc(OC)c1OC (centres unmarked)", "IC50": "> 10 mg/L"}
{"Molecule": "COc1cc(C2COc3cc(O)ccc3C2c2ccc(O)c(F)c2)cc(OC)c1OC (centres unmarked)", "IC50": "> 10 mg/L"}
